Biological target: T1, 4H2277-AA
T1 chain: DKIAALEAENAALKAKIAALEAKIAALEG
Assay: two-hybrid library CCmax;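 further: natural log of median RNA to DNA barcode read ratio; higher means stronger binding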
Conditions: mean of both orientations
quantity.measured: interaction score
Output: the number by itself.

- binder: "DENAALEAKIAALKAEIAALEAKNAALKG [4H1352-AA]"
  interaction score: -1.27
- binder: "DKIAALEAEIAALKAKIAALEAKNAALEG [4H2151-AA]"
  interaction score: -1.38
- binder: "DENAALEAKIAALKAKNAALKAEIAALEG [4H1401-AA]"
  interaction score: -1.59
- binder: "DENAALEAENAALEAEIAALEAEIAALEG [4H1153-AA]"
  interaction score: -1.07
- binder: "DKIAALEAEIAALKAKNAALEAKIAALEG [4H2165-AA]"
  interaction score: -1.36

Please look at this binder and report its interaction score: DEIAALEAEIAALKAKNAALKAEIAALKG [4H122-AA] -1.29

Supply interaction score value. Item: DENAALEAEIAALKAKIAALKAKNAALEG [4H1135-AA] -1.81

Source of measurements: paper PMC10397247
